Reference for the values: paper PMC11852049

assay: Transepithelial transport assay (Papp), HBEC air–liquid interface cultures on Transwells; details: human, Papp (apparent permeability), compound set 2; mean ± standard deviation; apical to basal over 24 h; approx. 5 mg/mL apical; three donors (L8 excluded)
quantity-measured: Papp at 24 h (×10⁻⁶ cm/s)
Report the figure in ×10⁻⁶ cm/s without appending any unit label.

Q. Write down Papp at 24 h measured for item `CC(C)(O/N=C(/C(=O)N[C@@H]1C(=O)N2C(C(=O)[O-])=C(C[n+]3ccccc3)CS[C@H]12)c1csc(N)n1)C(=O)NCCNc1ccnc(N)n1`
A. 2.03

Q. Write down Papp at 24 h measured for item `CC(C)(O/N=C(/C(=O)N[C@@H]1C(=O)N2C(C(=O)[O-])=C(C[n+]3ccccc3)CS[C@H]12)c1csc(N)n1)C(=O)NCCCS(=O)(=O)c1ccccc1`
A. 2.71

Q. Write down Papp at 24 h measured for item `CN1CCN(CCNC(=O)C(C)(C)O/N=C(/C(=O)N[C@@H]2C(=O)N3C(C(=O)[O-])=C(C[n+]4ccccc4)CS[C@H]23)c2csc(N)n2)CC1`
A. 2.6

Q. Write down Papp at 24 h measured for item `CC(C)(O/N=C(/C(=O)N[C@@H]1C(=O)N2C(C(=O)[O-])=C(C[n+]3ccccc3)CS[C@H]12)c1csc(N)n1)C(=O)NCCCSc1ccc(B(O)O)cc1`
A. 4.9

Q. Write down Papp at 24 h measured for item `CC(C)(O/N=C(/C(=O)N[C@@H]1C(=O)N2C(C(=O)[O-])=C(C[n+]3ccccc3)CS[C@H]12)c1csc(N)n1)C(=O)NCCCCCCOCCCCc1ccccc1`
A. 2.45

Q. Write down Papp at 24 h measured for item `COCCOCCOCCNC(=O)C(C)(C)O/N=C(/C(=O)N[C@@H]1C(=O)N2C(C(=O)[O-])=C(C[n+]3ccccc3)CS[C@H]12)c1csc(N)n1`
A. 3.6

###

test: Transepithelial transport assay (Papp), HBEC air–liquid interface cultures on Transwells; conditions: human, Papp (apparent permeability), compound set 1; mean ± standard deviation; apical to basal over 24 h; approx. 5 mg/mL apical; three donors
I'd appreciate it if you could supply Papp at 24 h values for the items below.

Q. Write down Papp at 24 h measured for item CC(C)(O/N=C(\C(=O)N[C@@H]1C(=O)N2C(C(=O)[O-])=C(C[n+]3ccccc3)CS[C@H]12)c1csc(N)n1)C(=O)O [Ceftazidime pentahydrate, ceftazidime pentahydrate, reference compound]
A. 3.36 ×10⁻⁶ cm/s

Q. Write down Papp at 24 h measured for item `COCCOCCOCCOCCOCCOCCOCCOCCNC(=O)C(C)(C)O/N=C(/C(=O)N[C@@H]1C(=O)N2C(C(=O)[O-])=C(C[n+]3ccccc3)CS[C@H]12)c1csc(N)n1`
A. 1.86 ×10⁻⁶ cm/s

Q. Write down Papp at 24 h measured for item `COCCOCCOCCOCCOCCNC(=O)C(C)(C)O/N=C(/C(=O)N[C@@H]1C(=O)N2C(C(=O)[O-])=C(C[n+]3ccccc3)CS[C@H]12)c1csc(N)n1`
A. 2.23 ×10⁻⁶ cm/s
